Let's look at some compounds and their measured Fading rate t1/2.
assay-details: Photochromic properties of cast polymer (2 mm thick) under xenon lamp irradiation for 120 seconds
Assay type: physicochemical
protocol-conditions: single chromene compound 0.04% by weight in polymer, 20° C.; Table 5
assay-readout: Fading rate t1/2

>>> value("CC(C)(C)c1cc2ccccc2c2c1C=CC1(CC3CCC1C3)O2 (centres unmarked)")
"1.3 min"
>>> value("CCCCc1cc2cccc(Br)c2c2c1C=CC(c1ccc(OC)c(F)c1)(c1ccc(OC)c(F)c1)O2")
"4.8 min"
>>> value("CC(C)c1cc2ccccc2c2c1C=CC1(O2)C2CC3CC(C2)CC1C3 (centres unmarked)")
"2.0 min"
>>> value("COc1ccc(C2(c3ccc(OC)cc3)C=Cc3c(C)cc4ccc(C)cc4c3O2)cc1")
"6.0 min"
>>> value("CCC(C)(CC)c1cc2ccccc2c2c1C=CC(c1ccc(OC)c(F)c1)(c1ccc(OC)c(F)c1)O2")
"2.2 min"
>>> value("COc1ccc(C2(c3ccco3)C=Cc3c(C)cc4c(F)ccc(C)c4c3O2)cc1 (centres unmarked)")
"6.3 min"
>>> value("CCC(C)c1cc2ccccc2c2c1C=CC1(O2)C2CCCC1CCC2 (centres unmarked)")
"1.0 min"
>>> value("CC(C)(C)c1cc2ccccc2c2c1C=CC1(O2)C2(Cl)CCCC1(Cl)CCC2 (centres unmarked)")
"1.4 min"

---

assay-details: Photochromic properties of cast polymer (2 mm thick) under xenon lamp irradiation for 120 seconds
Assay type: physicochemical
protocol-conditions: single chromene compound 0.04% by weight in polymer, 120 seconds, 20° C.; Table 5
assay-readout: Color density ε(120)-ε(0)

>>> value("CCc1cc2ccccc2c2c1C=CC(c1ccc(OC)cc1)(c1ccc(OC)cc1)O2")
1.0
>>> value("COc1ccc(C2(c3ccc(OC)cc3)C=Cc3c(C)cc4ccc(C)cc4c3O2)cc1")
1.1
>>> value("CC(C)c1cc2ccccc2c2c1C=CC1(O2)C2CC3CC(C2)CC1C3 (centres unmarked)")
0.7
>>> value("COc1ccc(C2(c3ccco3)C=Cc3c(C)cc4c(F)ccc(C)c4c3O2)cc1 (centres unmarked)")
1.0
>>> value("COc1ccc(C2(c3ccc(OC)cc3)C=Cc3c(C(C)C)cc4ccccc4c3O2)cc1")
0.8
>>> value("CCOc1ccc(C2(c3ccc(OC)cc3)C=Cc3c(CC)cc4c(Cc5ccccc5)cccc4c3O2)cc1 (centres unmarked)")
1.0
>>> value("CC(C)(C)c1cc2ccccc2c2c1C=CC(c1ccccc1)(c1ccc(OC(F)(F)F)cc1)O2 (centres unmarked)")
0.7
>>> value("CC(C)(C)c1cc2ccccc2c2c1C=CC(c1ccccc1)(c1ccccc1)O2")
0.7

---

assay-details: Photochromic properties of cast polymer (2 mm thick) under xenon lamp irradiation for 120 seconds
Format: physicochemical
protocol-conditions: single chromene compound 0.04% by weight in polymer, 20° C.; Table 5
assay-readout: Maximum absorption wavelength λmax (nm)

>>> value("CCC(C)(CC)c1cc2ccccc2c2c1C=CC(c1ccc(OC)c(F)c1)(c1ccc(OC)c(F)c1)O2")
465
>>> value("CCCc1cc2c(CC)cc(OCC)cc2c2c1C=CC(c1ccc(OC)cc1)(c1cccs1)O2 (centres unmarked)")
524
>>> value("CC(C)c1cc2ccccc2c2c1C=CC1(O2)C2CCC1CC2 (centres unmarked)")
448
>>> value("C1=CC2(Oc3c1ccc1ccccc31)C1CCCC2CCC1 (centres unmarked) [d, reference compound]")
452
>>> value("COc1ccc(C2(c3ccc(OC)c(F)c3)C=Cc3c(C)cc4ccccc4c3O2)cc1 (centres unmarked)")
502
>>> value("CC(C)(C)c1cc2ccccc2c2c1C=CC1(O2)C2CC3CC(C2)CC1C3 (centres unmarked)")
445
>>> value("CC(C)c1cc2ccccc2c2c1C=CC1(O2)C2CCCC1CCC2 (centres unmarked)")
449
>>> value("CC(C)(C)c1cc2ccccc2c2c1C=CC(c1ccccc1)(c1ccccc1)O2")
462

---

assay-details: Photochromic properties of cast polymer (2 mm thick) under xenon lamp irradiation for 120 seconds
Assay type: physicochemical
protocol-conditions: single chromene compound 0.04% by weight in polymer, 20° C.; Table 5
assay-readout: Fading rate t1/2 (min)

>>> value("CC(C)c1cc2ccccc2c2c1C=CC(c1ccccc1)(c1ccc3ccccc3c1)O2 (centres unmarked) [Compound 7]")
3.5
>>> value("CC(C)c1cc2cc(O)ccc2c2c1C=CC(c1cccs1)(c1cccs1)O2 [Compound 9]")
2.2
>>> value("COc1ccc(C2(c3ccc(OC)c(F)c3)C=Cc3c(C)cc4ccccc4c3O2)cc1 (centres unmarked) [Compound 34]")
6.5
>>> value("CC(C)c1cc2ccccc2c2c1C=CC1(O2)C2CCCC1CCC2 (centres unmarked) [Compound 21]")
1.0
>>> value("CC(C)(C)c1cc2ccccc2c2c1C=CC(c1ccccc1)(c1cc3ccccc3s1)O2 (centres unmarked) [Compound 11]")
3.4
>>> value("CCOC(=O)c1c2c(c3ccccc3c1C)OC1(C=C2)C2CCCC1CCC2 (centres unmarked) [f, reference compound]")
4.1
>>> value("COc1ccc(C2(c3ccco3)C=Cc3c(C)cc4ccccc4c3O2)cc1F (centres unmarked) [Compound 31]")
7.0
>>> value("C1=CC2(Oc3c1ccc1ccccc31)C1CCCC2CCC1 (centres unmarked) [d, reference compound]")
11
>>> value("COc1ccc(C2(c3cccs3)C=Cc3c(C)cc4ccccc4c3O2)cc1 (centres unmarked) [Compound 32]")
6.5
>>> value("CC(C)(C)c1cc2ccccc2c2c1C=CC1(O2)C2CC3CC(C2)CC1C3 (centres unmarked) [Compound 24]")
1.8
>>> value("COc1ccc(C2(c3ccc(OC)cc3)C=Cc3c(C)cc4ccccc4c3O2)cc1 [Compound 26]")
6.0
>>> value("CC(C)(C)c1cc2ccccc2c2c1C=CC1(O2)C2CCCC1CCC2 (centres unmarked) [Compound 2]")
1.2
>>> value("CCC(C)(C)c1cc2ccccc2c2c1C=CC(c1ccc(OC)cc1)(c1ccco1)O2 (centres unmarked) [Compound 3]")
3.1
>>> value("COc1ccc2c3c(c(C(C)Cc4ccccc4)cc2c1)C=CC(c1ccccc1)(c1cccn1C)O3 (centres unmarked) [Compound 8]")
2.2
>>> value("COc1ccc(C2(c3ccc(OC(F)(F)F)cc3)C=Cc3c(C)cc4ccccc4c3O2)cc1 (centres unmarked) [Compound 30]")
8.5
>>> value("COc1ccc(C2(c3ccc(OC(F)(F)F)cc3)C=Cc3c(C(C)C)cc4ccccc4c3O2)cc1 (centres unmarked) [Compound 15]")
4.8
>>> value("CCOc1ccc(C2(c3ccc(OCC)cc3)C=Cc3c(C)cc4ccccc4c3O2)cc1 [Compound 29]")
5.8

---

Let's look at some compounds and their measured Fading rate t1/2.
assay-details: Photochromic properties of cast polymer (2 mm thick) under xenon lamp irradiation for 120 seconds
Assay type: physicochemical
protocol-conditions: single chromene compound 0.04% by weight in polymer, 20° C.; Table 5
assay-readout: Fading rate t1/2 (min)

>>> value("CC(C)(C)c1cc2ccccc2c2c1C=CC(c1ccccc1)(c1cccs1)O2 (centres unmarked) [Compound 6]")
2.8
>>> value("CC(C)c1cc2ccccc2c2c1C=CC(c1ccccc1)(c1ccccc1)O2 [Compound 12]")
6.8
>>> value("COc1ccc(C2(c3ccc(OC)c(F)c3)C=Cc3c(C(C)C)cc4ccccc4c3O2)cc1F [Compound 14]")
4.3
>>> value("COc1ccc(C2(c3ccc(OC)c(F)c3)C=Cc3c(C)cc4ccccc4c3O2)cc1F [Compound 27]")
7.3
>>> value("Cc1cc2ccccc2c2c1C=CC(c1ccccc1)(c1ccccc1)O2 [c, reference compound]")
20
>>> value("CC(=O)Oc1ccc2c3c(c(C(C)C)cc2c1)C=CC(c1ccc(C)cc1)(c1ccc(C)cc1)O3 [Compound 10]")
3.2
>>> value("COc1ccc(C2(c3ccc(OC)cc3)C=Cc3c(C)cc4c(OC)cccc4c3O2)cc1 [Compound 33]")
5.5

---

Let's look at some molecules and their measured Light resistance (durability).
assay-details: Aging promotion testing: sunlight 30 min / fading one hour cycles, 10 days (durability, coloring degree)
Type: physicochemical
protocol-conditions: single chromene compound in polymer, 10 days aging; Table 5
assay-readout: Light resistance (durability) (%)

>>> value("CCOC(=O)C1=CC(c2ccccc2)(c2ccccc2)Oc2c1cc(C)c1ccccc21 [b, reference compound]")
80
>>> value("COc1ccc(C2(c3ccc(OC)cc3)C=Cc3c(C)cc4c(OC)cccc4c3O2)cc1 [Compound 33]")
98
>>> value("COc1ccc(C2(c3ccco3)C=Cc3c(C)cc4c(F)ccc(C)c4c3O2)cc1 (centres unmarked) [Compound 41]")
95
>>> value("CCCc1cc2ccccc2c2c1C=CC(c1ccc(OC)cc1)(c1ccc(OC)cc1)O2 [Compound 35]")
98
>>> value("CC(C)c1cc2ccccc2c2c1C=CC1(O2)C2CCCC1CCC2 (centres unmarked) [Compound 21]")
97
>>> value("CC(C)(C)c1cc2ccccc2c2c1C=CC(c1ccccc1)(c1ccc(OC(F)(F)F)cc1)O2 (centres unmarked) [Compound 17]")
98
>>> value("COc1ccc2c3c(c(C(C)Cc4ccccc4)cc2c1)C=CC(c1ccccc1)(c1cccn1C)O3 (centres unmarked) [Compound 8]")
92
>>> value("CC(C)(C)c1cc2ccccc2c2c1C=CC(c1ccccc1)(c1ccccc1)O2 [Compound 1]")
99
